- TARGET_SYSTEM: STAT6 (Homo sapiens)
- Construct: stably transfected HaCaT keratinocyte cell line, which expresses NanoLuc luciferase reporter gene under the transcriptional control of the STAT6 responsive promoter; endogenous in cells; host or cells: HaCaT keratinocyte reporter cell line (stably transfected with a NanoLuc reporter)
- Sequence (P42226 1-847): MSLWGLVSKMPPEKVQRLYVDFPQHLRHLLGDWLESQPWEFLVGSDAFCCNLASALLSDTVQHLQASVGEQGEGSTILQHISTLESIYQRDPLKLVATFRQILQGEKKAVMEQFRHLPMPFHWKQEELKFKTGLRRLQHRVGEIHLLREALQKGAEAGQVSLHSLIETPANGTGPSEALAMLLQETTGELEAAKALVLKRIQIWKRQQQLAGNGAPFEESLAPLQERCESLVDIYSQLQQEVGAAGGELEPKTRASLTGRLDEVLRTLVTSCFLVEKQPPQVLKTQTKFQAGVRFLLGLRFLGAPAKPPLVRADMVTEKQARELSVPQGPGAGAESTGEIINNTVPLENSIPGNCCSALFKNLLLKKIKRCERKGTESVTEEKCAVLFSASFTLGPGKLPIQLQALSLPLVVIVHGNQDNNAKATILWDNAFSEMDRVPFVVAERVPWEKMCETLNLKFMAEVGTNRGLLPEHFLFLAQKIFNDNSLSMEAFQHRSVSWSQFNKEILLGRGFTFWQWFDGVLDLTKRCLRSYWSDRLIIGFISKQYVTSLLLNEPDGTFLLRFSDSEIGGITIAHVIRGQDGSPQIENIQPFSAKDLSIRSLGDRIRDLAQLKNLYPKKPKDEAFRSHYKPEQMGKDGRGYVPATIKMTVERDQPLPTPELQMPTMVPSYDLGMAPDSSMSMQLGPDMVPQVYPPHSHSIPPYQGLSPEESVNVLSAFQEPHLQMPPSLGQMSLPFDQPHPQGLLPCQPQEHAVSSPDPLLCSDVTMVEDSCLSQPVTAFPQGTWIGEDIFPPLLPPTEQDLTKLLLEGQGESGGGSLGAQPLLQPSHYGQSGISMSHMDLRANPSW
- ASSAY_SUMMARY: STAT6 Reporter Luciferase Assay (IL-13 stimulated HaCaT keratinocyte NanoLuc reporter cells)
- Type: cell-based
- EXPERIMENTAL_SETUP: STAT6 NanoLuc luciferase reporter, IL-13 stimulated HaCaT keratinocyte cells; read-out: Reporter EC50
pEC50: −log10 of the molar value.
Please note: 1 applies when pEC50 is 8 or greater, and -1 applies otherwise.

// query Please tell me: is the compound CCn1nc(C(=O)NCc2ccc(NC(=O)N(C)C)cc2)c2c1[C@@H](C)CN(c1ncc(C(=O)N(C)C)cn1)C2 at or over 8 in terms of pEC50?
// result 1

// query Please tell me: is the compound CC(C)n1nc(C(=O)NCc2ccc(NC(=O)N[C@H]3C[C@@H](O)C3)cc2)c2c1CCN(c1ccc(C(=O)N(C)C)cn1)C2 at or over 8 in terms of pEC50?
// result -1

// query Please tell me: is the compound CC1CN(c2ccc(C(=O)N(C)C)cn2)Cc2c(C(=O)NCc3ccc(NC(=O)N(C)C)cc3)nn(C)c21 (racemic) [Example 6] at or over 8 in terms of pEC50?
// result 1

====

Would you mind telling me the reported EC50 of each entry?
- TARGET_SYSTEM: STAT6 (Homo sapiens)
- Construct: stably transfected HaCaT keratinocyte cell line, which expresses NanoLuc luciferase reporter gene under the transcriptional control of the STAT6 responsive promoter; endogenous in cells; host or cells: HaCaT keratinocyte reporter cell line (stably transfected with a NanoLuc reporter)
- Sequence (P42226 1-847): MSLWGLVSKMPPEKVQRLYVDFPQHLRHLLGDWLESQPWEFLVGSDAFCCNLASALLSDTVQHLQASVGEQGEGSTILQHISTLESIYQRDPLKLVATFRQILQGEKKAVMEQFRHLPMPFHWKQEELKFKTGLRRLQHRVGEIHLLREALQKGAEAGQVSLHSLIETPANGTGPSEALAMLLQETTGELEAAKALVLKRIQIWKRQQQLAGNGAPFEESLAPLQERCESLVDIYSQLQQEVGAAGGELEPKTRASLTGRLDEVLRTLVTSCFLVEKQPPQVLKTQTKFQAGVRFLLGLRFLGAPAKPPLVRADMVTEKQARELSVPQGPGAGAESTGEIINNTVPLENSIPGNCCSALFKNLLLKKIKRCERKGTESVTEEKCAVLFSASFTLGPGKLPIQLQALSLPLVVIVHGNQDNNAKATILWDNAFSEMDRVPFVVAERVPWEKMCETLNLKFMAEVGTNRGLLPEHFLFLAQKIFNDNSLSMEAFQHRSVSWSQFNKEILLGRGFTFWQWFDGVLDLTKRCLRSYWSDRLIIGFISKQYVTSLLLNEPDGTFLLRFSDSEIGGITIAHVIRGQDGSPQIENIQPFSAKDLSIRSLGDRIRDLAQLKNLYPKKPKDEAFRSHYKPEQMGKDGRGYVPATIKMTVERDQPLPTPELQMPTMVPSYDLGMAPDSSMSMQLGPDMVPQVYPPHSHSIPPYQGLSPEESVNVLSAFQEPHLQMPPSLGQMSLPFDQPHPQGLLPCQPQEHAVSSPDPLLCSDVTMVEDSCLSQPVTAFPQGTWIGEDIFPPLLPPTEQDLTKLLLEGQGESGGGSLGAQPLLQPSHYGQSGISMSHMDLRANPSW
- ASSAY_SUMMARY: STAT6 Reporter Luciferase Assay (IL-13 stimulated HaCaT keratinocyte NanoLuc reporter cells)
- Assay type: cell-based
- EXPERIMENTAL_SETUP: STAT6 NanoLuc luciferase reporter, IL-13 stimulated HaCaT keratinocyte cells; read-out: Reporter EC50
Report only the number, with the unit nM understood.

// query GET /values?readout=EC50&item= CCC1CN(c2ccc(C(=O)N(C)C)cn2)Cc2c(C(=O)NCc3ccc(NC(=O)N(C)C)cc3)nn(C)c21 (single isomer, unassigned) [Example 78]
// result 3

// query GET /values?readout=EC50&item= CN(C)C(=O)Nc1ccc(CNC(=O)c2csc3c2CN(c2ccc(C(=O)N(C)C)cn2)CC3)cc1 [Example 25]
// result 164

// query GET /values?readout=EC50&item= CCC1Cc2c(c(C(=O)NCc3ccc(NC(=O)N(C)C)cc3)nn2CC)CN1c1ccc(C(=O)N(C)C)cn1 (single isomer, unassigned) [Example 118]
// result 25

// query GET /values?readout=EC50&item= CC(C)n1nc(C(=O)NCc2ccc(NC(=O)N(C)C)cc2)c2c1C[C@@H](C)N(c1ccc(C(=O)N(C)C)cn1)C2 [Example 114]
// result 20

// query GET /values?readout=EC50&item= CCn1nc(C(=O)NCc2ccc(NC(=O)N(C)C)cc2)c2c1[C@@H](C)CN(c1ccc(C(=O)N(C)C)cn1)C2 [Example 126]
// result 1

// query GET /values?readout=EC50&item= CC(C)n1nc(C(=O)NCc2ccc(NC(=O)N3CCCCC3)cc2)c2c1CCN(c1ccc(C(=O)N(C)C)cn1)C2 [Example 144]
// result 7
